System: HEK-293T
methodNotes: Multiplex assay against HEK293T
Format: toxicity, cell-based
assayContext: human, 12 h, 10 µM, compound concentration 10 uM, replicate 2
Just a reminder that ties go to Not met: only Population Normal (%) strictly below 90% counts as Met.

Solved cases (2 shown):
N#Cc1c(Oc2cccc(OS(=O)(=O)CCCC(F)(F)F)c2)cccc1C(F)(F)F	Met
CCCOc1ccc2[nH]cc(C3=CCNCC3)c2n1.Cl	Not met

q: Dear reviewer, please state whether CC(C)(C)c1cc(NC(=O)Nc2ccc(-c3cn4c(n3)sc3cc(OCCN5CCOCC5)ccc34)cc2)no1 has Population Normal (%) strictly beneath 90%.
a: Met

q: Dear reviewer, please state whether Cc1noc(-c2ccc(-c3ccc(CC(=O)O)cc3)cc2)c1NC(=O)O[C@H](C)c1ccccc1Cl has Population Normal (%) strictly beneath 90%.
a: Met

q: Dear reviewer, please state whether CCc1cc2cc(NS(=O)(=O)c3ccc(C#N)cc3)ccc2n(CC)c1=O has Population Normal (%) strictly beneath 90%.
a: Met

q: Dear reviewer, please state whether CN(C)C(=O)Cn1cc(-c2ccc(-c3cncc4ccccc34)cc2)cn1 has Population Normal (%) strictly beneath 90%.
a: Met

q: Dear reviewer, please state whether COC[C@@H](c1ccc(C(F)(F)F)cc1)N1CCN(C2(C)CCN(C(=O)c3c(C)ncnc3C)CC2)C[C@@H]1C.O=C(O)/C=C\C(=O)O [VICRIVIROC MALEATE] has Population Normal (%) strictly beneath 90%.
a: Met

q: Dear reviewer, please state whether CCCCC1=NC2(CCCC2)C(=O)N1Cc1ccc(-c2ccccc2-c2nnn[nH]2)cc1 has Population Normal (%) strictly beneath 90%.
a: Met

q: Dear reviewer, please state whether O=C1[C@H](Cc2ccc(O)cc2)N2C(=O)CCN(C(=O)NCc3ccccc3)[C@H]2CN1Cc1cccc2ccccc12 has Population Normal (%) strictly beneath 90%.
a: Met

q: Dear reviewer, please state whether Cc1cccc(NC(=O)CN2CCC(c3ccccn3)CC2)c1.Cl.Cl has Population Normal (%) strictly beneath 90%.
a: Met

q: Dear reviewer, please state whether C[C@H](N)COC(=O)[C@@H](CCCCN)NC(=O)Cc1c(-c2ccc3ccccc3c2)[nH]c2c1ccc1ccccc12 has Population Normal (%) strictly beneath 90%.
a: Not met

q: Dear reviewer, please state whether Cl.NCCc1ccc(O)c(O)c1 [DOPAMINE HYDROCHLORIDE] has Population Normal (%) strictly beneath 90%.
a: Not met
